TARGET_OF_ASSAY: human α-thrombin (Homo sapiens, UniProt P00734)
ASSAY_NOTES: Sub-library screen for active and permeable cyclic peptides (PAMPA plus thrombin inhibition)
Assay type: biochemical
MEASUREMENT_CONTEXT: donor sample diluted to theoretical equilibrium (1 μM in assay); crude; slopes normalized to DMSO
Description: Linear dithiol peptides were synthesized in fritted 5-ml polypropylene syringes on a MultiPep RSi parallel peptide synthesizer (Intavis) by standard Fmoc-based solid-phase peptide synthesis on cysteamine 2-chlorotrityl resin (Sigma-Aldrich, 8.56000, 1.63 mmol g^−1 loading, 25 μmol scale) as described above with small changes. […] After quantification with Ellman’s reagent, 1 μmol of each peptide was transferred in seven replicates to new Nunc 96-well DeepWell polypropylene plates and lyophilized. […]
Assign Residual thrombin activity: Equilibrated sample to each entry below.
Respond with the number and no other words.

Param request: Residual thrombin activity: Equilibrated sample | system human α-thrombin (Homo sapiens, UniProt P00734) | item Cc1cccc(C[C@@H]2NC(=O)[C@@H](NC(=O)c3ccc(Cl)s3)CSCc3cccc(c3)CSCCNC(=O)C[C@H]3CCCN3C2=O)c1 [C1-X37-L5] 88.0

With human α-thrombin (Homo sapiens, UniProt P00734) as the test system, provide measured Residual thrombin activity: Equilibrated sample for this compound: COc1ccc(C[C@@H]2NC(=O)[C@@H](NC(=O)c3ccc(Cl)s3)CSCc3ccc(cc3)CSCCNC(=O)C[C@H]3CCCN3C2=O)cc1 [C1-X33-L3] 98.9

Consider the compound CN1C(=O)[C@@H](NC(=O)c2ccc(Cl)s2)CSC/C=C/CSCCNC(=O)C[C@H]2CCCN2C(=O)[C@@H]1Cc1ccccc1 [C1-X32-L4] tested on human α-thrombin (Homo sapiens, UniProt P00734); state its Residual thrombin activity: Equilibrated sample. 100.2

Report Residual thrombin activity: Equilibrated sample on human α-thrombin (Homo sapiens, UniProt P00734) for this entry: N#Cc1ccc(C[C@@H]2NC(=O)[C@@H](NC(=O)c3ccc(Cl)s3)CCSCCS(=O)(=O)CCSCCNC(=O)C[C@H]3CCCN3C2=O)cc1 [C2-X35-L2] 100.1

Please look at O=C1C[C@H]2CCCN2C(=O)[C@H](Cc2ccccc2)NC(=O)[C@@H](NC(=O)c2ccc(Cl)s2)CCCSCc2cccc(n2)CSCCN1 [C3-X5-L1] and tell me its recorded Residual thrombin activity: Equilibrated sample on human α-thrombin (Homo sapiens, UniProt P00734). 75.1

Give Residual thrombin activity: Equilibrated sample for this entry on human α-thrombin (Homo sapiens, UniProt P00734): Cc1cccc(C[C@@H]2NC(=O)[C@@H](NC(=O)c3ccc(Cl)s3)CCCSCc3ccc(cc3)CSCCNC(=O)C[C@H]3CCCN3C2=O)c1 [C3-X37-L3] 68.7

State, for human α-thrombin (Homo sapiens, UniProt P00734), measured Residual thrombin activity: Equilibrated sample of the compound listed here: O=C1C[C@H]2CCCN2C(=O)[C@H](Cc2ccccc2)NC(=O)[C@@H](NC(=O)c2ccc(Cl)s2)CSCc2ccc(cc2)CSCCN1 [C1-X5-L3] 68.9

Answer briefly: Residual thrombin activity: Equilibrated sample recorded on human α-thrombin (Homo sapiens, UniProt P00734) for Cc1cccc(C[C@@H]2NC(=O)[C@@H](NC(=O)c3ccc(Cl)s3)CCCSCc3cccc(c3)CSCCNC(=O)C[C@H]3CCCN3C2=O)c1 [C3-X37-L5] 83.4

Jot down Residual thrombin activity: Equilibrated sample (human α-thrombin (Homo sapiens, UniProt P00734)) of O=C1C[C@H]2CCCN2C(=O)[C@H](Cc2ccccc2)NC(=O)[C@@H](NC(=O)c2ccc(Cl)s2)CCCSCCS(=O)(=O)CCSCCN1 [C3-X5-L2] . 27.6

State measured Residual thrombin activity: Equilibrated sample of the compound N#Cc1ccc(C[C@@H]2NC(=O)[C@@H](NC(=O)c3ccc(Cl)s3)CSC/C=C/CSCCNC(=O)C[C@H]3CCCN3C2=O)cc1 [C1-X35-L4] with human α-thrombin (Homo sapiens, UniProt P00734). 96.9

Give Residual thrombin activity: Equilibrated sample for this entry on human α-thrombin (Homo sapiens, UniProt P00734): O=C1C[C@H]2CCCN2C(=O)[C@@H](Cc2ccccc2)NC(=O)[C@@H](NC(=O)c2ccc(Cl)s2)CCSCc2ccccc2CSCCN1 [C2-X31-L6] 88.8

Fill in: Residual thrombin activity: Equilibrated sample on human α-thrombin (Homo sapiens, UniProt P00734), entry COc1ccc(C[C@@H]2NC(=O)[C@@H](NC(=O)c3ccc(Cl)s3)CCSCc3ccc(cc3)CSCCNC(=O)C[C@H]3CCCN3C2=O)cc1 [C2-X33-L3] 99.6

Provide measured Residual thrombin activity: Equilibrated sample on human α-thrombin (Homo sapiens, UniProt P00734) for Cc1cccc(C[C@@H]2NC(=O)[C@@H](NC(=O)c3ccc(Cl)s3)CCCSCc3ccccc3CSCCNC(=O)C[C@H]3CCCN3C2=O)c1 [C3-X37-L6] please. 79.2

====

ASSAY_NOTES: Passive artificial membrane permeability (PAMPA);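 on Permeability% Average: top well sample relative to theoretical equilibrium sample by TIC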
MEASUREMENT_CONTEXT: PAMPA; average of R1-R3
VALUE_TYPE: Permeability% Average (%)
Return type: number; implicit unit %.

Specify Permeability% Average for O=C1CCSCc2cccc(n2)CSCCNC(=O)C2CN(C(=O)c3ccc(Cl)s3)CCN2C(=O)[C@H](CO)N1 (some centres unmarked) and stop. 2.0

Provide one value: measured Permeability% Average of O=C1CC2CCN(CC2)C(=O)[C@H](Cc2ccccc2)NC(=O)[C@@H](NC(=O)c2ccc(Cl)s2)CSCc2cccc(n2)CSCCN1 20.3

Using the record for O=C1CCSCc2cccc(n2)CSCCNC(=O)[C@H](CO)NC(=O)[C@@H](NC(=O)c2ccc(Cl)s2)CN1 , state its measured Permeability% Average. 0.9

Output Permeability% Average of O=C1CCSC/C=C/CSCCNC(=O)[C@H](CNC(=O)c2ccc(Cl)s2)NC(=O)[C@H](Cc2ccccn2)N1 15.5

Return the recorded Permeability% Average value; entry: C[C@@H]1NC(=O)[C@@H](NC(=O)c2ccc(Cl)s2)CSCc2cccc(n2)CSCCNC(=O)[C@H]2CCCN(C2)C1=O 27.4

====

TARGET_OF_ASSAY: human α-thrombin (Homo sapiens, UniProt P00734)
ASSAY_NOTES: Sub-library screen for active and permeable cyclic peptides (PAMPA plus thrombin inhibition)
Type: biochemical
MEASUREMENT_CONTEXT: PAMPA acceptor well after 14 h, 5 μM donor; crude; slopes normalized to DMSO
VALUE_TYPE: Residual thrombin activity: Top sample

Quickly give me recorded Residual thrombin activity: Top sample for CN1C(=O)[C@@H](NC(=O)c2ccc(Cl)s2)CCSCc2ccc(cc2)CSCCNC(=O)C[C@H]2CCCN2C(=O)[C@@H]1Cc1ccccc1 97.8

Please indicate Residual thrombin activity: Top sample recorded for O=C1C[C@H]2CCCN2C(=O)[C@H](Cc2ccccc2)NC(=O)[C@@H](NC(=O)c2ccc(Cl)s2)CCCSCc2cccc(c2)CSCCN1 84.2

Specify Residual thrombin activity: Top sample for Cc1cccc(C[C@@H]2NC(=O)[C@@H](NC(=O)c3ccc(Cl)s3)CCSCc3ccccc3CSCCNC(=O)C[C@H]3CCCN3C2=O)c1 and stop. 97.5

====

ASSAY_NOTES: Passive artificial membrane permeability (PAMPA)
MEASUREMENT_CONTEXT: PAMPA, pH 7.4
VALUE_TYPE: Papp at 50 μM (×10⁻⁶ cm/s)
Give just the numeric value; ×10⁻⁶ cm/s need not be written.

Name the recorded Papp at 50 μM of the item O=C1NCCSCc2cccc(n2)CSCCC(=O)N2CCC[C@H]2C(=O)N2CCN(C(=O)c3ccc(Cl)s3)CC12 (stereo partly drawn) [compound 23] in your answer. 6.46

Consider the compound C[C@@H]1NC(=O)[C@@H](NC(=O)c2ccc(Cl)s2)CSCc2cccc(n2)CSCCNC(=O)c2ccc(cc2)CNC1=O [compound 26] . State its measured Papp at 50 μM. 0.275

Note Papp at 50 μM for the compound shown: O=C1C[C@H]2CCCN2C(=O)[C@H](Cc2ccccc2)NC(=O)[C@@H](NC(=O)c2ccc(Cl)s2)CCC=CCCCN1 [compound 41] 9.33

Return the recorded Papp at 50 μM value; entry: O=C1C[C@H]2CCCN2C(=O)[C@H](Cc2ccccn2)NC(=O)[C@@H](NC(=O)c2ccc(Cl)s2)CSCCS(=O)(=O)CCSCCN1 [compound 12] 0.0229

Provide measured Papp at 50 μM value, entry: NC(=O)NCCC[C@@H]1NC(=O)[C@@H](NC(=O)c2ccc(Cl)s2)CNC(=O)CCSCc2cccc(n2)CSCCNC1=O [compound 20] 0.0646

Retrieve Papp at 50 μM measured for O=C1C[C@H]2CCCN2C(=O)[C@H](Cc2ccccc2)NC(=O)[C@@H](NC(=O)c2ccc(Cl)s2)CCC=CCCN1 [compound 39] and print it. 11.5

Determine from records and report Papp at 50 μM for O=C(N[C@H]1CSCc2cccc(n2)CSCCNC(=O)[C@H](Cc2ccccn2)NC(=O)C2(CCCC2)NC1=O)c1ccc(Cl)s1 [compound 28] 2.29

Give reported Papp at 50 μM value for O=C1C[C@H]2CCCN2C(=O)[C@H](Cc2ccccc2)NC(=O)[C@@H](NC(=O)c2ccc(Cl)s2)CCCC=CCCCN1 [compound 42] 11.2

Look up and report measured Papp at 50 μM for this entry: O=C1C[C@H]2CCCN2C(=O)[C@H](Cc2ccccc2)NC(=O)[C@@H](NC(=O)c2ccc(Cl)s2)CCCC=CCCCCN1 [compound 44] 5.62
